# assayed-target: human N-type Ca channel (Homo sapiens)
# measurement-notes: Calcium influx assay (FDSS), KCl depolarization, Fluo8 dye
# Assay type: cell-based
# Parameters: host or cells: HEK 293
# test-parameters: HEK 293 cells expressing human N-type Ca channel; 100 mM KCl; read-out: N Type IC50 Data FDSS
test-readout: IC50 (nM)

Here are 6 molecules together with their reported answers.
CCOc1ccc(-n2cc(C3CC(C)(C)OC(C)(C)C3)nc2-c2ccncc2OC)cc1 376
COc1ncccc1-c1nc(C2CC(C)(C)OC(C)(C)C2)cn1-c1ccc(F)c(F)c1 822
COc1ncccc1-c1nc(C2CC(C)(C)OC(C)(C)C2)cn1-c1ccc(F)c(F)c1F 359
COc1ncccc1-c1nc(C2CC(C)(C)OC(C)(C)C2)cn1-c1ccc(F)c(Br)c1 360
COc1ncccc1-c1nc(C2CC(C)(C)OC(C)(C)C2)cn1-c1ccc(F)c(Cl)c1 255
COc1ncccc1-c1nc(C2CC(C)(C)OC(C)(C)C2)cn1-c1ccc(C#N)c(C)c1 256

I: COc1ccccc1-c1nc(C2CC(C)(C)OC(C)(C)C2)cn1-c1ccc(C(F)(F)F)nc1
II: COc1ccccc1-c1nc(C2(O)CC(C)(C)OC(C)(C)C2)cn1-c1ccc(F)c(Cl)c1
III: COc1cccnc1-c1nc(C2(O)CC(C)(C)OC(C)(C)C2)cn1-c1ccc(Cl)cc1
IV: COc1ccccc1-c1nc(C2(O)CC(C)(C)OC(C)(C)C2)cn1-c1ccc(F)c(C#N)c1
Query string: Would you mind ranking these molecules by ascending IC50? Record the ranking as a list of labels in the requested order.
Result string: I, II, III, IV
(I: 96 nM, II: 257 nM, III: 464 nM, IV: 1440 nM)

a: COc1ccccc1-c1nc(C2(O)CC(C)(C)OC(C)(C)C2)cn1-c1ccc(F)c(F)c1
b: COc1ccccc1-c1nc(C2(O)CC(C)(C)OC(C)(C)C2)cn1-c1ccc(C#N)c(F)c1
Query string: For the pair a and b , which entry has the numerically smaller recorded IC50? Pick one; state its label.
Result string: b

P: COc1ncccc1-c1nc(C2CC(C)(C)OC(C)(C)C2)cn1-c1ccc(C#N)c(F)c1
Q: COc1ncccc1-c1nc(C2CC(C)(C)OC(C)(C)C2)cn1-c1ccc(C(F)(F)F)nc1
Query string: For the pair P and Q , which entry has the numerically smaller recorded IC50? Pick one; state its label.
Result string: P
(P: 333 nM, Q: 1960 nM)

a: COc1ccccc1-c1nc(C2CC(C)(C)OC(C)(C)C2)c(C)n1-c1ccc(Cl)cc1
b: COc1ccccc1-c1nc(C2(O)CC(C)(C)OC(C)(C)C2)cn1-c1ccc(Cl)c(F)c1
c: COc1ncccc1-c1nc(C2CC(C)(C)OC(C)(C)C2)cn1Cc1ccccc1Cl
d: COc1cccnc1-c1nc(C2CC(C)(C)OC(C)(C)C2)cn1-c1ccc(Cl)c(F)c1
e: CCOc1ncccc1-c1nc(C2(O)CC(C)(C)OC(C)(C)C2)cn1-c1ccc(Cl)cc1
Query string: Would you mind ranking these molecules by ascending IC50? Record the ranking as a list of labels in the requested order.
Result string: b, a, d, e, c
(b: 41 nM, a: 120 nM, d: 263 nM, e: 607 nM, c: 6400 nM)

1: COc1ccccc1-c1nc(C2CC(C)(C)OC(C)(C)C2)cn1-c1ccc(C#N)cc1
2: COc1ncccc1-c1nc(C2CC(C)(C)OC(C)(C)C2)cn1Cc1cccc(Cl)c1
Query string: When 1 and 2 are compared, which has the higher number for IC50? Pick one; state its label.
Result string: 2

P: COc1cc(-n2cc(C3CC(C)(C)OC(C)(C)C3)nc2-c2ccccc2OC)ccc1C#N
Q: COc1ncccc1-c1nc(C2(O)CC(C)(C)OC(C)(C)C2)cn1-c1ccc(C#N)cc1
R: COc1ccc(-n2cc(C3CC(C)(C)OC(C)(C)C3)nc2-c2cccnc2OC)cc1F
Query string: Would you mind ranking these molecules by ascending IC50? Record the ranking as a list of labels in the requested order.
Result string: R, Q, P

P: COc1cccnc1-c1nc(C2CC(C)(C)OC(C)(C)C2)cn1-c1ccc(C#N)cc1
Q: COc1ccccc1-c1nc(C2(O)CC(C)(C)OC(C)(C)C2)cn1-c1ccc(C(F)(F)F)nc1
Query string: When P and Q are compared, which has the higher number for IC50? Pick one; state its label.
Result string: P

P: COc1ncccc1-c1nc(C2CC(C)(C)OC(C)(C)C2)cn1-c1cc(F)cc(C#N)c1
Q: CC1(C)CC(c2cn(-c3ccc(Cl)cc3)c(C3CC3)n2)CC(C)(C)O1
Query string: When P and Q are compared, which has the higher number for IC50? Pick one; state its label.
Result string: P
(P: 8160 nM, Q: 1670 nM)

----------
# assayed-target: human N-type Ca channel (Homo sapiens)
# measurement-notes: Electrophysiological response, QPatch (depolarization -80 mV to +20 mV)
# test-parameters: read-out: Qpatch Pulse=1 (percent inhibition)
test-readout: inhibition at 10 µM (%)

compound	inhibition at 10 µM / %
COc1ccccc1-c1nc(C2(O)CC(C)(C)OC(C)(C)C2)cn1-c1ccc(Cl)cc1 [Compound 102]	48
COc1ccccc1-c1nc(C2CC(C)(C)OC(C)(C)C2)cn1-c1ccc(Br)c(F)c1 [Compound 62]	81
COc1ncccc1-c1nc(C2CC(C)(C)OC(C)(C)C2)cn1-c1ccc(C#N)cc1 [Compound 43]	34
COc1ncccc1-c1nc(C2CC(C)(C)OC(C)(C)C2)cn1-c1ccc(Cl)cc1 [Compound 11]	63
COc1ccccc1-c1nc(C2CC(C)(C)OC(C)(C)C2)cn1-c1ccc(Cl)c(F)c1 [Compound 41]	71

1: COc1ncccc1-c1nc(C2CC(C)(C)OC(C)(C)C2)c(Cl)n1-c1ccc(C#N)cc1 [Compound 91]
2: COc1cccnc1-c1nc(C2CC(C)(C)OC(C)(C)C2)cn1-c1ccc(C#N)cc1 [Compound 12]
3: COc1ccccc1-c1nc(C2(O)CC(C)(C)OC(C)(C)C2)cn1-c1ccc(F)c(C#N)c1 [Compound 117]
Query string: Please give the order of these compounds when sorted by inhibition at 10 µM, largest value leading. Record the ranking as a list of labels in the requested order.
Result string: 1, 3, 2
(1: 58%, 3: 40%, 2: 28%)

----------
# assayed-target: human N-type Ca channel (Homo sapiens, UniProt Q00975)
# Sequence (Q00975 whole entry): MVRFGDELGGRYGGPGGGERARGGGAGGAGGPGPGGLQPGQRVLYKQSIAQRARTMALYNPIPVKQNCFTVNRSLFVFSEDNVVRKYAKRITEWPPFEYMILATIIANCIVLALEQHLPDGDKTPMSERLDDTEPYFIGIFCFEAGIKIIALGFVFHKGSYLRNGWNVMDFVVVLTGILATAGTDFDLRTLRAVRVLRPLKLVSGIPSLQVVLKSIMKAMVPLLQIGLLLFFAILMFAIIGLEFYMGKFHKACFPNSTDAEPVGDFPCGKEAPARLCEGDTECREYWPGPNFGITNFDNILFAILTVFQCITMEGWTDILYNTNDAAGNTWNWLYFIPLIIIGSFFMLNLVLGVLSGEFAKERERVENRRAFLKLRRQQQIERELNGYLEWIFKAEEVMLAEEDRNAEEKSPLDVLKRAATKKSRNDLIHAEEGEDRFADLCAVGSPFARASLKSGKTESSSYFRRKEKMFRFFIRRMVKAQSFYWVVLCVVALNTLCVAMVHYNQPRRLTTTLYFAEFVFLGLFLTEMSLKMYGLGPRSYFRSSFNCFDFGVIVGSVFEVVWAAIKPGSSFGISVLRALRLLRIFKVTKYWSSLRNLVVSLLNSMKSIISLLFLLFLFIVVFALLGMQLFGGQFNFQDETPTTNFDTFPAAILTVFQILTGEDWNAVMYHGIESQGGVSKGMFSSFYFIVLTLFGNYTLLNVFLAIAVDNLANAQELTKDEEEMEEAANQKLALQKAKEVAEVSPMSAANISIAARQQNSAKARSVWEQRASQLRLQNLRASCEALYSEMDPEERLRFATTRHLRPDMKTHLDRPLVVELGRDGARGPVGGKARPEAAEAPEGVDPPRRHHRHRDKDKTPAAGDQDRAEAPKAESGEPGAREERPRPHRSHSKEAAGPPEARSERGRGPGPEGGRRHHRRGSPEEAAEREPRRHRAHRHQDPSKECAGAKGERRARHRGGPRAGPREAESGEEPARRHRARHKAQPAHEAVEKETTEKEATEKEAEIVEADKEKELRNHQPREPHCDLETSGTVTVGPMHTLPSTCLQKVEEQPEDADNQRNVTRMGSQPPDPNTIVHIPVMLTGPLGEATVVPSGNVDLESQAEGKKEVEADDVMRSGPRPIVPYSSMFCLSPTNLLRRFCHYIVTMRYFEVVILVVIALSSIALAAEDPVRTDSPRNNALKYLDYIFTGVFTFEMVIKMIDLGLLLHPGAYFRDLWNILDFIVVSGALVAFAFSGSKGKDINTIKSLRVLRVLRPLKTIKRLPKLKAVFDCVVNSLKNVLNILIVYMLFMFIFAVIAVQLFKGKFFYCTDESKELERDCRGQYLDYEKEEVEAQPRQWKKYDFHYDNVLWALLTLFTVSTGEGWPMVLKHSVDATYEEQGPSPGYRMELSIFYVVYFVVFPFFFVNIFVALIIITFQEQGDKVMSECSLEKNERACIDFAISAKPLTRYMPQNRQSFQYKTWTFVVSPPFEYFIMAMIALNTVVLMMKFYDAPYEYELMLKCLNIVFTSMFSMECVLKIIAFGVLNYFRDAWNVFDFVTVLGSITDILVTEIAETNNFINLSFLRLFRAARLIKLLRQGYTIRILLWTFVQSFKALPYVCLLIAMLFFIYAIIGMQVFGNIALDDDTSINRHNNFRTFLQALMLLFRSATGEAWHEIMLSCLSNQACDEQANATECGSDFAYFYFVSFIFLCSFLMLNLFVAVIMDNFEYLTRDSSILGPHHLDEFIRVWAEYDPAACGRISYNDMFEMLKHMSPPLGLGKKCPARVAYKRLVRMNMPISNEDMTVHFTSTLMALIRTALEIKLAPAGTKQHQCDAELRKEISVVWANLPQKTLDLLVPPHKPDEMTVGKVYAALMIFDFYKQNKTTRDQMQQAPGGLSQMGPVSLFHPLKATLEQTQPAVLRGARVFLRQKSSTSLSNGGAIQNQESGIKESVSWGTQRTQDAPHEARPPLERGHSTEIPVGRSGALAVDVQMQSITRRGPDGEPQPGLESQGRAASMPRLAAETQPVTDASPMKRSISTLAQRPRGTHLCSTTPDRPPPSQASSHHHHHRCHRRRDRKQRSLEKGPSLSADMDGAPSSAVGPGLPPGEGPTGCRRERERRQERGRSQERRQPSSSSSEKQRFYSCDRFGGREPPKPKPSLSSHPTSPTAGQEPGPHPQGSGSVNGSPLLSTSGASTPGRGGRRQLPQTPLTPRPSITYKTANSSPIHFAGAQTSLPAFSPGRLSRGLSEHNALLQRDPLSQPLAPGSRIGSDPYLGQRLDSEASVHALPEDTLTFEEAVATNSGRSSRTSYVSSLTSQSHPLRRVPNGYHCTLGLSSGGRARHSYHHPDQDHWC
# Sequence (P54284 whole entry partner): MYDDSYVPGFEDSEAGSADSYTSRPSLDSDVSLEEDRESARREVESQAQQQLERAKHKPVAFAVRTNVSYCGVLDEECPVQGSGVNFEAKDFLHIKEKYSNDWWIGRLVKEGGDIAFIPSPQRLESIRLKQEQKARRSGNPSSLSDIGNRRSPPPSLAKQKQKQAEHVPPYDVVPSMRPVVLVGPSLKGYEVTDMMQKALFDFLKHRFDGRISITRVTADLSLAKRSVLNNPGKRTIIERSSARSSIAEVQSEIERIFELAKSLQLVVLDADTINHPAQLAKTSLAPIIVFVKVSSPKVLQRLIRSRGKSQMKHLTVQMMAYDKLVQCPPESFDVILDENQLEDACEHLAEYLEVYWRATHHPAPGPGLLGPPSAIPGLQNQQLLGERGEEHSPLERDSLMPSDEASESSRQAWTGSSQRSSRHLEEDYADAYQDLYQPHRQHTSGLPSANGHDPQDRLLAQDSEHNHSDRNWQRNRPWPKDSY
# Sequence (P54289 25-956 partner limits assumed): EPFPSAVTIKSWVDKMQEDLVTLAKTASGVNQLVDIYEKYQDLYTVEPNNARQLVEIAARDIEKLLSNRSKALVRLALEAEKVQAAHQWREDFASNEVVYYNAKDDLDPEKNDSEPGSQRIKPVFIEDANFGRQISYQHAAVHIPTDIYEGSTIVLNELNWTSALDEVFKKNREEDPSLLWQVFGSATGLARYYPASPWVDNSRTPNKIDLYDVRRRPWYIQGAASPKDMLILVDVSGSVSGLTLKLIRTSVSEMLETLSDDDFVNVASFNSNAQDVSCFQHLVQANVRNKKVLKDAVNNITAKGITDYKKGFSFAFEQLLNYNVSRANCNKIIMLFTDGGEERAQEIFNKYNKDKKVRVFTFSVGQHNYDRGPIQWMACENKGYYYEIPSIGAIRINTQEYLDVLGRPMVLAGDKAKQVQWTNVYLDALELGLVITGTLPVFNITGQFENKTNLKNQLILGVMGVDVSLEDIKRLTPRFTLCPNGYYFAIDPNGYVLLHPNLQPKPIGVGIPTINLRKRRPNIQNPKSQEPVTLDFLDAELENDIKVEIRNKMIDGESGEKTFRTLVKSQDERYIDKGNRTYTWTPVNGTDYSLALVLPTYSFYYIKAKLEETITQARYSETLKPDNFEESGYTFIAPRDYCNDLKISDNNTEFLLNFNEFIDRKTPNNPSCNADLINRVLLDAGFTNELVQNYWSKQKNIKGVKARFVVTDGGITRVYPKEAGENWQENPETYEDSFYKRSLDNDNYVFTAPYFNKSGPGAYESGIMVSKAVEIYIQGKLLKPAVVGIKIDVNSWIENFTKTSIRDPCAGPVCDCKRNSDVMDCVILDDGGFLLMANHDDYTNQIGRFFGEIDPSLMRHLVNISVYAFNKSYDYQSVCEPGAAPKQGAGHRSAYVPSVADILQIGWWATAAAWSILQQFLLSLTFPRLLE
# Sequence (P54289 957-1103 partner limits assumed): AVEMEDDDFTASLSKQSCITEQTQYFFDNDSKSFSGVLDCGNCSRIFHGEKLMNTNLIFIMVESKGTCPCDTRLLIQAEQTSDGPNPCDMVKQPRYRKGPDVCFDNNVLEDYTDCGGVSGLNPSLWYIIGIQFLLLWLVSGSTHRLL
# measurement-notes: Electrophysiological response, QPatch (depolarization -80 mV to +20 mV)
# test-parameters: Pulse=15; concentration range 0.01-0.3 µM
test-readout: N Type IC50 Data Qpatch Pulse=15

CCOc1nccnc1-c1nc(C2CC(C)(C)OC(C)(C)C2)cn1-c1ccc(Cl)cc1 poor fit(0.01-0.3 µM)
COc1ncccc1-c1nc(C2CC(C)(C)OC(C)(C)C2)cn1Cc1ccc(Cl)cc1 poor fit(0.01-0.3 µM)
COc1nccnc1-c1nc(C2CC(C)(C)OC(C)(C)C2)cn1-c1ccc(C#N)c(F)c1 poor fit(0.01-0.3 µM)
COc1ccccc1-c1nc(C2CC(C)(C)OC(C)(C)C2)cn1-c1c(F)cc(C#N)cc1F poor fit(0.01-0.3 µM)
COc1ccccc1-c1nc(C2CC(C)(C)OC(C)(C)C2)c(C)n1-c1ccc(Cl)cc1 poor fit(0.01-0.3 µM)
CCOc1ncccc1-c1nc(C2CC(C)(C)OC(C)(C)C2)cn1-c1ccc(C#N)c(F)c1 poor fit(0.01-0.3 µM)
COc1ncccc1-c1nc(C2CC(C)(C)OC(C)(C)C2)cn1-c1cc(F)c(C#N)c(F)c1 poor fit(0.01-0.3 µM)
COc1ncccc1-c1nc(C2CC(C)(C)OC(C)(C)C2)cn1-c1ccc(C#N)c(C)c1 poor fit(0.01-0.3 µM)
CC1(C)CC(c2cn(-c3ccc(C(F)(F)F)nc3)c(CC3CC3)n2)CC(C)(C)O1 poor fit(0.01-0.3 µM)
COc1ncccc1-c1nc(C2CC(C)(C)OC(C)(C)C2)cn1-c1ccc(C#N)c(C(F)(F)F)c1 poor fit(0.01-0.3 µM)

--- query ---
Query string: Please report the recorded N Type IC50 Data Qpatch Pulse=15 for `COc1nccnc1-c1nc(C2CC(C)(C)OC(C)(C)C2)cn1-c1ccc(C#N)cc1` .
Result string: poor fit(0.01-0.3 µM)

----------
# assayed-target: human N-type Ca channel (Homo sapiens, UniProt Q00975)
# measurement-notes: Electrophysiological response, QPatch (depolarization -80 mV to +20 mV)
# test-parameters: N Type IC50 Data Qpatch Pulse=1, Pulse=1; concentration range 0.3-10 µM
test-readout: IC50 (µM)

Here are 2 compounds together with their reported answers.
compound	IC50 (µM)
COc1ncccc1-c1nc(C2CC(C)(C)OC(C)(C)C2)c(Cl)n1-c1ccc(Cl)cc1 [Compound 93]	6.5
COc1ccccc1-c1nc(C2=CC(C)(C)OC(C)(C)C2)cn1-c1ccc(Br)c(F)c1 [Compound 125]	2.1

P: COc1ncccc1-c1nc(C2CC(C)(C)OC(C)(C)C2)cn1-c1ccc(Cl)c(F)c1 [Compound 44]
Q: COc1ncccc1-c1nc(C2(O)CC(C)(C)OC(C)(C)C2)cn1-c1ccc(F)c(F)c1 [Compound 108]
Query string: When P and Q are compared, which has the higher number for IC50? Pick one; state its label.
Result string: Q
